Molecular target: Carbonic anhydrase 9 (Homo sapiens)
Assay: Inhibition of human recombinant carbonic anhydrase 9 by stopped-flow CO2 hydration assay
measuredAttribute: Ki (nM)

[[record]]
smilesentry = "CC(=O)OC[C@H]1O[C@@H](S(=O)(=O)N2CC[C@@H](OS(N)(=O)=O)C2)[C@H](OC(C)=O)[C@@H](OC(C)=O)[C@@H]1OC(C)=O"
recordednumber = 2


(I) NS(=O)(=O)O[C@@H]1CCN(S(=O)(=O)[C@@H]2O[C@H](CO)[C@@H](O)[C@H](O)[C@H]2O)C1
(II) CC(=O)OC[C@H]1O[C@@H](S(=O)(=O)NCCCOS(N)(=O)=O)[C@H](OC(C)=O)[C@@H](OC(C)=O)[C@@H]1OC(C)=O
Form: Entry with minimum Ki (choose one): I / II Write the label of whichever entry you select. I
(I: 2 nM, II: 215 nM)

----------
Biological target: Carbonic anhydrase 1 (Homo sapiens, UniProt P00915)
Sequence (P00915 whole entry): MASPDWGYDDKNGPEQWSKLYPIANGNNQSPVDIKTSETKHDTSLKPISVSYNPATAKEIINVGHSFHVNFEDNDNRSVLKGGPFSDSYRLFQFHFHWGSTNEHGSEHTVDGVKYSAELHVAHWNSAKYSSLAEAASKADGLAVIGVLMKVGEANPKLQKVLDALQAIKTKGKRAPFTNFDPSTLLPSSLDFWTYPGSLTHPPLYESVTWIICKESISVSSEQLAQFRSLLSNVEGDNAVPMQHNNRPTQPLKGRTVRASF
Test: Inhibition of human recombinant carbonic anhydrase 1 by stopped-flow CO2 hydration assay
measuredAttribute: Ki

The measured Ki associated with "COC(=O)[C@H](CS(N)(=O)=O)NS(=O)(=O)[C@@H]1O[C@H](COC(C)=O)[C@@H](OC(C)=O)[C@H](OC(C)=O)[C@H]1OC(C)=O" reads > 20 µM

Recorded result, "NS(=O)(=O)OC1CCN(S(=O)(=O)[C@@H]2O[C@H](CO)[C@@H](O)[C@H](O)[C@H]2O)CC1" , Ki: > 20 µM
